System: SW-620
assayNotes: NCI tumour cell line growth inhibition, 48 h
Calls of active or inactive are those of the source. Cut-off read from the data, not from the text of the source: active = GI50 up to about 1.1 µM and inactive = higher.

| molecule | experimentalSystem | GI50 |
| --- | --- | --- |
| COC(=O)/C(=N\NC(N)=O)C(C(=O)C=C(C)C)C(=O)C(=O)Nc1ccc(Cl)c(Cl)c1 (centres undefined) | SW-620 | > 100 µM (inactive) |
| COc1ccc2c(c1)c1cc(OC)ccc1n2CCCCOc1ccc(-c2c3ccccc3c(-c3ccc(OCCCCn4c5ccc(OC)cc5c5cc(OC)ccc54)cc3)c3ccccc23)cc1 | SW-620 | > 100 µM (inactive) |
| O=c1c(-c2ccccc2)c(SCCO)n(-c2ccccc2)c(=S)n1-c1ccccc1 | SW-620 | > 100 µM (inactive) |
| CSc1nc2c(c(=O)n1C)N=C(c1ccc([N+](=O)[O-])cc1)CC(c1ccccc1)N2 (centres undefined) | SW-620 | > 100 µM (inactive) |
| Cc1cccc2[n+]1[C@H]1[C@H]([C@@H]3O[C@H]1c1ccccc13)[S+]([O-])N2 (some centres undefined) | SW-620 | > 100 µM (inactive) |
| CC(C(=O)N1C(=O)N(C(=O)C(C)C(O)c2ccccc2)C2CCCCC21)C(O)c1ccccc1 (centres undefined) | SW-620 | > 100 µM (inactive) |
| O=[N+]([O-])c1cc(Cl)cc2cc(Cl)cnc12 | SW-620 | > 100 µM (inactive) |
| COc1cccc(C(=O)N[C@@H]2[C@H](O)[C@@H](CO)O[C@H]2n2cnc3c(N)ncnc32)c1 | SW-620 | > 100 µM (inactive) |
| Cc1ns/c(=N\C(=S)N(C)C)n1C | SW-620 | > 100 µM (inactive) |
